We begin with a simple list: items and their reported % live, Fab-saporin, 250pM.
# testedTarget: human BMPR1B overexpressed on the surface of HEK293T cells (N-terminal Asp-Lys epitope tag, … (human, UniProt O00238 14-502))
# Sequence (O00238 14-502): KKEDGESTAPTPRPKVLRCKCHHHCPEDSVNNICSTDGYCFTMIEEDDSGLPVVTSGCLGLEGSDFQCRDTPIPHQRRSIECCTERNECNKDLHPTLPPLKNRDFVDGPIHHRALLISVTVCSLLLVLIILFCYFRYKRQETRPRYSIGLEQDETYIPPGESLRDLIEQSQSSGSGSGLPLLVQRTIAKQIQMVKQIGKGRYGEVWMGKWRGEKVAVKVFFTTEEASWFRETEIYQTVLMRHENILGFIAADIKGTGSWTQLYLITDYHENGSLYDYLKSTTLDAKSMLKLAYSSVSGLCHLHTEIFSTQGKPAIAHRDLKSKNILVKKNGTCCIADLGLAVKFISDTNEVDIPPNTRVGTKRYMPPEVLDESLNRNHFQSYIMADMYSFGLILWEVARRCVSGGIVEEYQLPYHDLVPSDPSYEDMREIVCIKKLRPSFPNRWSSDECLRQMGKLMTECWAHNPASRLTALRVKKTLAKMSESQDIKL
# runDescription: cell-based or functional assay
The reply should be a number in %, with the unit left off.

Some binders with recorded % live, Fab-saporin, 250pM:
[
  {
    "binder": "SC91.187 (antibody, V domains shown) VH: QVQLQQPGPEFVKPGASVKLSCKASGYTFTSYWVQWVKQRPGQGLEWIGEIDPSDNYTLYNQNFKGKATLTVDTSSSTAYMQLSSLTSEDSAVYYCARFGFYVDYWGQGTTLTVSS VL: DVVMTQTPLSLPVSLGEQASISCRSSQSLVHSTGNTYLHWYLQKPGQSPKLLIYKVSNRFSGVPDRFSGSGSGTDFTLKISRVEAEDLGVYFCSQSTHVPFTFGSGTKLEIK",
    "% live, Fab-saporin, 250pM / %": 19.1
  },
  {
    "binder": "SC91.155 (antibody, V domains shown) VH: QIQLVQSGPELKKPGETVKISCKASGYTFTTYGMNWVKQAPGKGLKWMGWINSYSGVPAYADDFKGRFAFSLETFASTAYLQINNLRDEDTATYFCARSELRNWYFDVWGTGTTVTVSS VL: SFVMTQTPKFLLVSAGDRVTITCKASQNLGNDVAWYQQKPGQSPRLLIYFASNRYTGVPDRFTGSGYGTDFTFTISTVQAEDLAVYFCQQDYSSPFTFGSGTKLEIK",
    "% live, Fab-saporin, 250pM / %": 29.3
  }
]

--- query ---
[Q] Quick one: % live, Fab-saporin, 250pM for SC91.160 (antibody, V domains shown) VH: QIQLVQSGPELKKPGETVKISCKASGYTFTTYGMNWVKQAPGKGLKWMGWINTYSGVPSSADDFKGRFAFSLETSASTAYLLINNLKNEDTATYFCARSELRNWYFDVWGTGTTVTVSS VL: SFVMTQTPKFLLVSAGDRVTITCKASQNMGHDVAWYQQKPGQSPKLLIYSASNRYTGVPDRFTGSGYGTDFTFTISTVQAEDLAVYFCQQDYSSPFTFGSGTKLEMK ?
[A] 24.3
